- measurement_target: human SGLT2 (Homo sapiens, UniProt P31639, I433V)
- Construct: expressed in transfected cells; host or cells: COS-7 cells (RIKEN CELL BANK RCB0539), transient, electroporation of KL29
- Sequence (P31639 whole entry I433V): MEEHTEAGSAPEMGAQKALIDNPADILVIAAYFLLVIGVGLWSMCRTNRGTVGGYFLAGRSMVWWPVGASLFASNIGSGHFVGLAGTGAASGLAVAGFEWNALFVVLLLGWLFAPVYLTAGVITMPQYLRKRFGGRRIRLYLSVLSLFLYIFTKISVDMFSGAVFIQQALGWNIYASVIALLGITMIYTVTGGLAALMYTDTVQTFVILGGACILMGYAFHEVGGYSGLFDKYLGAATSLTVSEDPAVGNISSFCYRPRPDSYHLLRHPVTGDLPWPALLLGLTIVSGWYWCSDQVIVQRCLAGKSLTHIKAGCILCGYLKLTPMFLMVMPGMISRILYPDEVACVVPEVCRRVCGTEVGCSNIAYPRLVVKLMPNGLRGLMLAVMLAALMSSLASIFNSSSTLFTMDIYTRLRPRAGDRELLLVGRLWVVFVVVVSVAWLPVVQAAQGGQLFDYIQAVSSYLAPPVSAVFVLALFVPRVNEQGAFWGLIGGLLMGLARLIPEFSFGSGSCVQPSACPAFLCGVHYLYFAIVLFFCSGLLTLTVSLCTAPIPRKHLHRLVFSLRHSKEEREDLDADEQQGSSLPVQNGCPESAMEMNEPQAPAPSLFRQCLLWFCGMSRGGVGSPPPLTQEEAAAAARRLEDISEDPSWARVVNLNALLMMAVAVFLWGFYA
- protocol_summary: Assay for inhibitory effect on human SGLT2 activity (uptake of methyl-α-D-glucopyranoside)
- Format: cell-based
- experimental_setup: COS-7 cells expressing transiently human SGLT2; uptake of methyl-α-D-(U-14C)glucopyranoside, 37° C., 2 hours
- Procedure: • Assay for Inhibitory Effect on Human SGLT2 Activity • 1) Construction of the Plasmid Vector Expressing Human SGLT2 Preparation of the cDNA library for PCR amplification was performed by reverse transcription of a total RNA deprived from human kidney (Ori gene) with oligo dT as the primer, using SUPERSCRIPT Preamplification System (Gibco-BRL: LIFE TECHNOLOGIES). […] 1 (−) Myc/His—B was analyzed. […]
measured_attribute: pIC50
Answers are plain numbers, as −log10 of the molar value.

{"columns": ["smiles_repr", "value_reported"],
 "data": [
  ["Cc1c(Cc2ccc(OC(C)C)cc2)c(O[C@@H]2O[C@H](CO)[C@@H](O)[C@H](O)[C@H]2O)nn1-c1ccccc1", 6.70]
]}

Read the next record carefully.
Query: Tell me measured pIC50 for CCc1ccc(Cc2c(O[C@@H]3O[C@H](CO)[C@@H](O)[C@H](O)[C@H]3O)nn(-c3ccccc3)c2C)cc1 please.
Reply: 6.57
